- target_or_test_system: UniProt P55263
- Sequence (P55263 2-362 limits assumed): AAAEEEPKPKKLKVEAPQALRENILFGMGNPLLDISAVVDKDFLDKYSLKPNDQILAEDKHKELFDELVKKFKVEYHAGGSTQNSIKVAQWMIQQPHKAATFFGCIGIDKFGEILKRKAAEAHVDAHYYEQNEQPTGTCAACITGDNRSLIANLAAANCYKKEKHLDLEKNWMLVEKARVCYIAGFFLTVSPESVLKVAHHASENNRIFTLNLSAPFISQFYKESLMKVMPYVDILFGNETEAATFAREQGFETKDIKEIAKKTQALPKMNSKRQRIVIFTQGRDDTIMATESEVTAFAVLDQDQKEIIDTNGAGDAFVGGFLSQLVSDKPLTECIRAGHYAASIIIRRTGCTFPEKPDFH
- assay_text: Activity of human ADK assessed as compound conversion to 5'-phosphate form incubated at 37 degC for 20 mins by HPLC method
- Set-up: concentration or dose not given beside the values
parameter_measured: Activity
Just the number plus its unit, please.

The cases that follow already have their Activity on record.
OC[C@H]1O[C@@H](n2cc(F)c3c(-c4ccccc4)ncnc32)[C@H](O)[C@@H]1O :: 17%
OC[C@H]1O[C@@H](n2ccc3c(-c4ccco4)ncnc32)[C@H](O)[C@@H]1O :: 56%
OC[C@H]1O[C@@H](n2ccc3c(-c4ccccn4)ncnc32)[C@H](O)[C@@H]1O :: 39%
OC[C@H]1O[C@@H](n2ccc3c(-c4nccs4)ncnc32)[C@H](O)[C@@H]1O :: 41%
OC[C@H]1O[C@@H](n2ccc3c(-c4ccoc4)ncnc32)[C@H](O)[C@@H]1O :: 32%

Given OC[C@H]1O[C@@H](n2cc(Cl)c3c(-c4cccs4)ncnc32)[C@H](O)[C@@H]1O , respond with its Activity.
100%

Given OC[C@H]1O[C@@H](n2cc(Cl)c3c(-c4ccco4)ncnc32)[C@H](O)[C@@H]1O , respond with its Activity.
77%

Given OC[C@H]1O[C@@H](n2ccc3c(-c4ccn[nH]4)ncnc32)[C@H](O)[C@@H]1O , respond with its Activity.
31%

Given OC[C@H]1O[C@@H](n2cc(F)c3c(-c4cccs4)ncnc32)[C@H](O)[C@@H]1O , respond with its Activity.
52%

Given OC[C@H]1O[C@@H](n2ccc3c(-c4c[nH]cn4)ncnc32)[C@H](O)[C@@H]1O , respond with its Activity.
28%
